Known EC50 Ratio (ODQ−/ODQ+) of a selection of compounds
- measurement_target: human sGC α subunit and β subunit (Homo sapiens, UniProt Q02153)
- Construct: expressed in transfected cells
- Sequence (Q02153 1-619): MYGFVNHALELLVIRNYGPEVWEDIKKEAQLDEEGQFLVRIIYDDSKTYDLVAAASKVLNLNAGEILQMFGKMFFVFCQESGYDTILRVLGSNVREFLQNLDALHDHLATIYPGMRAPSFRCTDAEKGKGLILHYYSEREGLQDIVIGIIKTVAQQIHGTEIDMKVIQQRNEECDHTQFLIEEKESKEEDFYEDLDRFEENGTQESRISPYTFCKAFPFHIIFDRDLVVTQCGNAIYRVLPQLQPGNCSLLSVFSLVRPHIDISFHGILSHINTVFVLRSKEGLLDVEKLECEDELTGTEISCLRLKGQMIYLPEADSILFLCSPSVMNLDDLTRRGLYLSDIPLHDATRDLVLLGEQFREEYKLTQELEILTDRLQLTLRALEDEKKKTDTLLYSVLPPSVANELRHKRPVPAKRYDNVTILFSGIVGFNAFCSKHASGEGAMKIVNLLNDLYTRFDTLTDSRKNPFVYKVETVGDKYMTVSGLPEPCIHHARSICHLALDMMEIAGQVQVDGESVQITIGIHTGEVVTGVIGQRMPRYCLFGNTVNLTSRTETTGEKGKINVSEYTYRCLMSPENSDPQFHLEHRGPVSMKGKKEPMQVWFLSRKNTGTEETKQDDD
- Sequence (Q02108 1-690 partner): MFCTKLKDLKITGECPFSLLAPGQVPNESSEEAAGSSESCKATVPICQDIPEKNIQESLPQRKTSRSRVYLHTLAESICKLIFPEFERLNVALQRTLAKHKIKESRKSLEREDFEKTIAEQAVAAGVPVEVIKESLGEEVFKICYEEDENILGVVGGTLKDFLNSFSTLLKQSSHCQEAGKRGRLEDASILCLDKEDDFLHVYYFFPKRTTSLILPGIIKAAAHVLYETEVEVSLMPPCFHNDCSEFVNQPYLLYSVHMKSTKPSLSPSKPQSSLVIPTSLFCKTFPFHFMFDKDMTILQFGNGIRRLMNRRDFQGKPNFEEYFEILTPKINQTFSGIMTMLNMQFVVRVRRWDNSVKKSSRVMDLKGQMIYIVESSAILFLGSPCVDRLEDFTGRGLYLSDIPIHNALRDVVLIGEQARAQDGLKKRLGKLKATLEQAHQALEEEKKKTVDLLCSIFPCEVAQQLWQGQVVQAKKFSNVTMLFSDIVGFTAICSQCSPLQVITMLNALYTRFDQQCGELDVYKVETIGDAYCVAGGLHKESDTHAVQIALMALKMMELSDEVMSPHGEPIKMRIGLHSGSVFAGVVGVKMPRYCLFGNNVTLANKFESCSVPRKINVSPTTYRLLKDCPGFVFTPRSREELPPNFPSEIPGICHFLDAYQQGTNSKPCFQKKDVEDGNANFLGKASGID
- experiment_notes: Heme-independent property of sGC activating function (EC50 ratio, CHO-K1 cells expressing human sGC and mouse CNGA2)
- Assay type: cell-based
- cond: EC50 in the absence of ODQ divided by EC50 in the presence of ODQ, sGC activation
quantity_measured: EC50 Ratio (ODQ−/ODQ+)

[[record]]
compound = "O=C(O)CCCCN(CCc1ccccc1OCc1ccc(CCc2ccccc2)cc1)C1CCCc2nc(C(=O)O)ccc21 (stereo not shown)"
quantity_measured = "EC50 Ratio (ODQ−/ODQ+)"
value_measured = 0.87

[[record]]
compound = "O=C(O)CCCCN(CCc1ccccc1OCc1ccc(CCc2ccccc2)cc1)C1COCc2cc(C(=O)O)ccc21 (stereo not shown)"
quantity_measured = "EC50 Ratio (ODQ−/ODQ+)"
value_measured = 1.80

[[record]]
compound = "O=C(O)CCCCN(CCc1ccccc1OCc1cccc2c1CCCC2)C1CCCc2cc(C(=O)O)ccc21 (stereo not shown)"
quantity_measured = "EC50 Ratio (ODQ−/ODQ+)"
value_measured = 1.71

[[record]]
compound = "O=C(O)CCCCN(CCc1ccccc1OCc1ccc(/C=C/C2CCCCC2)cc1)C1CCCc2cc(C(=O)O)ccc21 (stereo not shown)"
quantity_measured = "EC50 Ratio (ODQ−/ODQ+)"
value_measured = 1.15

[[record]]
compound = "O=C(O)CCCCN(CCc1ccccc1OCc1ccc(CCc2ccccc2)cc1)C1CCOc2cc(C(=O)O)ccc21 (stereo not shown)"
quantity_measured = "EC50 Ratio (ODQ−/ODQ+)"
value_measured = 2.85

[[record]]
compound = "O=C(O)CCCCN(CCc1ccccc1OCc1ccc(CCc2ccccc2)cc1)C1CCCCc2cc(C(=O)O)ccc21 (stereo not shown)"
quantity_measured = "EC50 Ratio (ODQ−/ODQ+)"
value_measured = 2.54

[[record]]
compound = "O=C(O)CCCCN(CCc1ccccc1OCc1ccc(CCc2ccccc2)cc1)C1COc2cc(C(=O)O)ccc21 (stereo not shown)"
quantity_measured = "EC50 Ratio (ODQ−/ODQ+)"
value_measured = 2.34

